Hi there, I'd appreciate the recorded Survival time for every entry that follows.
test system: Mus musculus; experiment: Average survival time of treated mice bearing the L1210 leukemia at a dose 150 mg/kg; assay type: functional
The answer is to be given in days; state only the numeric part.

So, CN(NC(=O)c1ccccc1)C(=O)c1ccccc1 ? Its Survival time was 9.2

So, CN(NS(=O)(=O)c1ccc2ccccc2c1)S(=O)(=O)c1ccc2ccccc2c1 ? Its Survival time was 9

So, CN(NS(=O)(=O)c1ccccc1)S(=O)(=O)c1ccccc1 ? Its Survival time was 9.4

So, O=S(=O)(NNS(=O)(=O)c1ccccc1)c1ccccc1 ? Its Survival time was 9.6
